Target: T1, Peptide 8: Biotin-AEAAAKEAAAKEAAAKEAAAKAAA-Tyr-acid (N-terminal biotin; C-terminal acid; no PC)
T1 construct: control peptide without PC
T1 peptide: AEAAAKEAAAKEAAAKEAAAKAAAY
Experiment: scFv ELISA
quantity.kind: OD450 (OD450)
Field format: number, assumed OD450, no unit text.

Look over these answered cases.
{"columns": ["binder", "readout.value"],
 "data": [
  ["PcOxP_DB02_E09 (scFv, V domains shown, scFv in periplasmic extract) VH: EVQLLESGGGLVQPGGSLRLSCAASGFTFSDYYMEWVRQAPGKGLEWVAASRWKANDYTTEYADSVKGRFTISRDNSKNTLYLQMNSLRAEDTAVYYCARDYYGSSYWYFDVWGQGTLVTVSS VL: DIVMTQSPDSLAVSLGERATINCTASESLYSSKHKVHYLAWYQQKPGQPPKLLIYGASTRYSGVPDRFSGSGSGTDFTLTISSLQAEDVAVYYCAQFYTYPLTFGGGTKVEIK", 0.04],
  ["PcOxP_DB01_D10 (scFv, V domains shown, scFv in periplasmic extract) VH: EVQLLESGGGLVQPGGSLRLSCAASGFTDSDFYMEWVRQAPGKGLEWVAASRNKANDYTTEYADSVKGRFTISRDNSKNTLYLQMNSLRAEDTAVYYCARDYYGSSYWYFDVWGQGTLVTVSS VL: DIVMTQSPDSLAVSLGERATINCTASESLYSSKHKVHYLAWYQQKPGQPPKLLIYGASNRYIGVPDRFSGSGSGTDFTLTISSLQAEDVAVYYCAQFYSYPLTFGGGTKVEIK", 0.04]
]}

Turning to the following binder.
Give me measured OD450, please, for this binder: PcOxP_DB02_C03 (scFv, V domains shown, scFv in periplasmic extract) VH: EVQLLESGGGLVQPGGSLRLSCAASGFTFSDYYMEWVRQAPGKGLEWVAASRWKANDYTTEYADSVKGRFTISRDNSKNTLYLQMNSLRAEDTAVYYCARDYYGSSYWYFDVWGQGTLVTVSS VL: DIVMTQSPDSLAVSLGERATINCTASESLYSSKHKVHYLAWYQQKPGQPPKLLIYGASNRYIGVPDRFSGSGSGTDFTLTISSLQAEDVAVYYCAQFYVYPLTFGGGTKVEIK
0.05
